Reported Ki against the protein given by its sequence, gathered from multiple publications, appears below.
Target chain: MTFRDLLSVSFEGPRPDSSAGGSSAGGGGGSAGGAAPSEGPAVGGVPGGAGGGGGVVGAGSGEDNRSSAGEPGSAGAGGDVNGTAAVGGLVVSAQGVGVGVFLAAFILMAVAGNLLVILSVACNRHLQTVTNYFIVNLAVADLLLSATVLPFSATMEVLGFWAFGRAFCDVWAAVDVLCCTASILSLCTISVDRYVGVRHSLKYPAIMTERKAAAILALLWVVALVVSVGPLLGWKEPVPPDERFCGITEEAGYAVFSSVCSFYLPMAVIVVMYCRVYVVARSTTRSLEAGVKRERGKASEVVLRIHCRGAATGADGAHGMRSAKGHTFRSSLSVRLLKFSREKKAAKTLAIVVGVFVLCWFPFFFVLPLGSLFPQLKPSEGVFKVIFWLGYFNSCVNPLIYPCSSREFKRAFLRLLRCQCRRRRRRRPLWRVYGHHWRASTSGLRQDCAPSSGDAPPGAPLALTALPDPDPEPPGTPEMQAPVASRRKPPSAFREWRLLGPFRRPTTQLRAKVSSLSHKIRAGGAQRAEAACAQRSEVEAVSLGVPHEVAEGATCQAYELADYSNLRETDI
Record the result as a number with its unit.

Reported Ki for COc1cccc2c1C1CN(CCCCn3c(=O)[nH]c4c(sc5ncc(-c6ccccc6)nc54)c3=O)CC1CO2 (configuration not stated) : what is it?
0.91 nM

// query Ki value for entry Clc1cccc(Cl)c1N=C1NCCN1
126 nM

Give the measured Ki of COc1ccccc1N1CCN(CCN(C(=O)C2CCCCC2)c2ccccc2OC)CC1 .
4.17 nM

What measured Ki goes with NC1=NC2(CCc3ccccc3C2)CO1 (configuration not stated) ?
25.1 nM

Look at this compound and give its reported Ki. c1cnc(N2CCN(Cc3ccc4c(c3)OCO4)CC2)nc1
219 nM

Can you look up the measured Ki of COc1ccc(Br)c(N2CCN(CCN(C(=O)C3CCCCC3)c3ccccc3OC(F)(F)F)CC2)c1 for me?
724 nM

For the compound shown here, CCOc1ccccc1OCCN[C@H](C)Cc1ccc(OC)c(S(N)(=O)=O)c1 , give the reported Ki.
0.056 nM
